Consider the following molecules; for each one, report its Water absorption at 25° C./95% RH.
Test: Dynamic Vapor Sorption (DVS) hygroscopicity test with XRPD before and after
Assay type: physicochemical
Conditions: DVS, 25° C./95% RH
// units = %; emit number, no label

// recorded Water absorption at 25° C./95% RH for CN(C)C(=O)c1cc2cnc(Nc3ccc(N4CCNCC4)cn3)nc2n1C1CCCC1.O=C(O)CCCCC(=O)O [adipate Form A] : 0.7

Looking up CN(C)C(=O)c1cc2cnc(Nc3ccc(N4CCNCC4)cn3)nc2n1C1CCCC1.O=C(O)/C=C\C(=O)O [maleate Form A] , I found its Water absorption at 25° C./95% RH recorded as 3.4

Per the records, this molecule ( CN(C)C(=O)c1cc2cnc(Nc3ccc(N4CCNCC4)cn3)nc2n1C1CCCC1.O=C(O)CO [glycollate Form A] ) has Water absorption at 25° C./95% RH equal to 1.2

For reference, reported Water absorption at 25° C./95% RH for CN(C)C(=O)c1cc2cnc(Nc3ccc(N4CCNCC4)cn3)nc2n1C1CCCC1.O=C(O)CCC(=O)O stands at 18.3
